We begin with a simple list: items and their reported protein stability index.
B1: ZC3H15 (parent)
chain: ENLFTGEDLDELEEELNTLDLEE

variants of: B1; assay: protein stability index of a GFP-peptide fusion (GPS, HEK-293T) (PSI 1-6); higher = more stable; settings: c terminus: native;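 note: lentivirally expressed fusions sorted by FACS into six bins by GFP to DsRed ratio, PSI derived from sequencing read proportions per bin multiplied by bin number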
readout.label: protein stability index

1. E15A ... 4.94
2. N2R ... 4.94
3. F4Q ... 4.69
4. E23P ... 5.67
5. E15R ... 5.29
6. N2Y ... 4.78
7. D8T ... 4.25
8. L21F ... 3.33
9. D8L ... 4.72
10. E13Y ... 4.11
11. E11F ... 3.64
12. E23L ... 5.73
13. G6N ... 4.83
14. E23G ... 5.05

Values from the supplement of paper PMC10567573
